# Tested on: OVCAR-8 ovarian
# assay_procedure: NCI-60 one-dose screen, 48 h
# condition_set: 10 µM unless noted
The panel holds about 83,000 compounds, 20% with a hit somewhere; the sample as a whole holds those more often. Activity calls are given as the source filed them. How the source made its calls: active means growth percent below 10; inactive means the rest.
Write down the outcome that applies. Available outcomes: active, inactive

• CC(C)C[C@@H](NC(=O)[C@@H](Cc1ccccc1)NC(=O)c1cnccn1)B1O[C@H]2[C@H](O)[C@@H](C(=O)NCCCC[C@@H]3NC(=O)[C@@H](Cc4ccccc4)NC(=O)[C@H](CC(=O)O)NC(=O)CNC(=O)[C@H](CCCN=C(N)N)NC3=O)O[C@@H](CN)[C@H]2O1 = active
• COc1cc2[nH]c(C(=O)c3cc(OC)c(OC)c(OC)c3)c(N)c2cc1C#CC1CC1 = inactive
• O=S(=O)(NCCNc1cc(-c2cn(-c3ccccc3)nc2-c2cccc(O)c2)ccn1)c1ccccc1 = inactive
• Cn1cc(-c2csc(-c3cn(CCCN4CCCCC4)c4ccc(F)cc34)n2)c2cccnc21 = inactive
• CCc1ccccc1NC(=O)c1sc2nc3c(cc2c1N)CCCC3 = inactive

q: # lookup: test call for Cn1cc(-c2csc(-c3cn(CCN)c4ccc(F)cc34)n2)c2cccnc21
a: inactive

q: # lookup: test call for CC(=O)OCCCCCCn1c2ccccc2c2c3c(c4c5ccccc5n(C)c4c21)C(=O)N(O)C3=O
a: inactive

###

# System: SR leukemia
# assay_procedure: NCI-60 one-dose screen, 48 h
# condition_set: 10 µM unless noted
About 83,000 compounds went through this panel and 20% of them were active in at least one assay; those are over-represented in the sample as a whole. Active and inactive are the calls of the source. The calls were made as follows: active = growth percent below 10; inactive = the rest.
Write down the outcome that applies. Available outcomes: active, inactive

* CCCCC/C(=C\c1ccccc1)C1OC(C)C(C)O1 (centres undefined) | inactive

q: # lookup: test call for COC(=O)[C@@H]1[C@H]2C[C@H]3c4[nH]c5cc(OC)ccc5c4CCN3C[C@@H]2C[C@H](OC(=O)/C=C/c2ccnc(OC)c2)[C@H]1OC
a: inactive

q: # lookup: test call for CC1(C)C(=O)/C(=C\c2cccnc2)C[C@]2(C)[C@H]3CC[C@@H]4[C@@H](C(=O)/C=C/c5ccncc5)CC[C@@]4(C)[C@]3(C)CC[C@@H]12
a: active

q: # lookup: test call for COc1cc(/C=N/NC(=S)NNC(=S)NC2CCCCC2)cc(OC)c1OC
a: inactive

q: # lookup: test call for COc1ccc2c(c1)c1nc3cc(C)c(C)cc3nc1n2CCN(C)C
a: active

q: # lookup: test call for N#C/C(=C\c1ccc(-c2ccccc2)o1)c1nc(-c2ccco2)cs1
a: inactive

###

# Tested on: MCF7 breast
# assay_procedure: NCI-60 one-dose screen, 48 h
# condition_set: 10 µM unless noted
About 83,000 compounds went through this panel and 20% of them were active in at least one assay; those are over-represented in the sample as a whole. Active and inactive are the calls of the source. The calls were made as follows: active = growth percent below 10; inactive = the rest.
Write down the outcome that applies. Available outcomes: Y for active, N for inactive

Study these solved cases before continuing.
- Brc1ccc2c(c1)c(-c1nc(-c3c[nH]c4ncccc34)cs1)cn2CCCN1CCCCC1: Y
- CCCCC(=O)OC1CCCCC1C (stereo unspecified): N
- O=C1c2cc3c(cc2-c2c1c1ccc(F)cc1c(=O)n2CCCN1CCOCC1)OCO3: N

q: # lookup: test call for O=c1[nH]ncc(Br)c1Br
a: N

q: # lookup: test call for C#Cc1cccc(NC(=O)C2CCCN(C(=O)CCl)C2)c1 (stereo unspecified)
a: N

q: # lookup: test call for CN1CCN(c2nc(-c3csc(-c4cccs4)n3)cc3ccccc23)CC1
a: N

q: # lookup: test call for CCN(CC)CCCCCCNc1ccnc2cc(Cl)ccc12
a: N

q: # lookup: test call for COc1ccc2c(c1)c(-c1nc(-c3c[nH]c4ncccc34)cs1)cn2C
a: N

q: # lookup: test call for N=C(N)c1ccc(-c2ccc(-c3cc(F)cc(F)c3)o2)nc1
a: N

q: # lookup: test call for N#Cc1c(-c2ccc(O)cc2)c2c(N)nn(-c3ccccc3)c2[nH]c1=O
a: N

q: # lookup: test call for COc1cccc(-c2nn(-c3ccccc3)cc2-c2ccnc(NCCNS(=O)(=O)c3ccc(Cl)cc3)c2)c1
a: N
